# Measured Target: intracellular ATR (Homo sapiens)
# Construct: endogenous in cells; host or cells: HT29
# Sequence (Q13535 whole entry): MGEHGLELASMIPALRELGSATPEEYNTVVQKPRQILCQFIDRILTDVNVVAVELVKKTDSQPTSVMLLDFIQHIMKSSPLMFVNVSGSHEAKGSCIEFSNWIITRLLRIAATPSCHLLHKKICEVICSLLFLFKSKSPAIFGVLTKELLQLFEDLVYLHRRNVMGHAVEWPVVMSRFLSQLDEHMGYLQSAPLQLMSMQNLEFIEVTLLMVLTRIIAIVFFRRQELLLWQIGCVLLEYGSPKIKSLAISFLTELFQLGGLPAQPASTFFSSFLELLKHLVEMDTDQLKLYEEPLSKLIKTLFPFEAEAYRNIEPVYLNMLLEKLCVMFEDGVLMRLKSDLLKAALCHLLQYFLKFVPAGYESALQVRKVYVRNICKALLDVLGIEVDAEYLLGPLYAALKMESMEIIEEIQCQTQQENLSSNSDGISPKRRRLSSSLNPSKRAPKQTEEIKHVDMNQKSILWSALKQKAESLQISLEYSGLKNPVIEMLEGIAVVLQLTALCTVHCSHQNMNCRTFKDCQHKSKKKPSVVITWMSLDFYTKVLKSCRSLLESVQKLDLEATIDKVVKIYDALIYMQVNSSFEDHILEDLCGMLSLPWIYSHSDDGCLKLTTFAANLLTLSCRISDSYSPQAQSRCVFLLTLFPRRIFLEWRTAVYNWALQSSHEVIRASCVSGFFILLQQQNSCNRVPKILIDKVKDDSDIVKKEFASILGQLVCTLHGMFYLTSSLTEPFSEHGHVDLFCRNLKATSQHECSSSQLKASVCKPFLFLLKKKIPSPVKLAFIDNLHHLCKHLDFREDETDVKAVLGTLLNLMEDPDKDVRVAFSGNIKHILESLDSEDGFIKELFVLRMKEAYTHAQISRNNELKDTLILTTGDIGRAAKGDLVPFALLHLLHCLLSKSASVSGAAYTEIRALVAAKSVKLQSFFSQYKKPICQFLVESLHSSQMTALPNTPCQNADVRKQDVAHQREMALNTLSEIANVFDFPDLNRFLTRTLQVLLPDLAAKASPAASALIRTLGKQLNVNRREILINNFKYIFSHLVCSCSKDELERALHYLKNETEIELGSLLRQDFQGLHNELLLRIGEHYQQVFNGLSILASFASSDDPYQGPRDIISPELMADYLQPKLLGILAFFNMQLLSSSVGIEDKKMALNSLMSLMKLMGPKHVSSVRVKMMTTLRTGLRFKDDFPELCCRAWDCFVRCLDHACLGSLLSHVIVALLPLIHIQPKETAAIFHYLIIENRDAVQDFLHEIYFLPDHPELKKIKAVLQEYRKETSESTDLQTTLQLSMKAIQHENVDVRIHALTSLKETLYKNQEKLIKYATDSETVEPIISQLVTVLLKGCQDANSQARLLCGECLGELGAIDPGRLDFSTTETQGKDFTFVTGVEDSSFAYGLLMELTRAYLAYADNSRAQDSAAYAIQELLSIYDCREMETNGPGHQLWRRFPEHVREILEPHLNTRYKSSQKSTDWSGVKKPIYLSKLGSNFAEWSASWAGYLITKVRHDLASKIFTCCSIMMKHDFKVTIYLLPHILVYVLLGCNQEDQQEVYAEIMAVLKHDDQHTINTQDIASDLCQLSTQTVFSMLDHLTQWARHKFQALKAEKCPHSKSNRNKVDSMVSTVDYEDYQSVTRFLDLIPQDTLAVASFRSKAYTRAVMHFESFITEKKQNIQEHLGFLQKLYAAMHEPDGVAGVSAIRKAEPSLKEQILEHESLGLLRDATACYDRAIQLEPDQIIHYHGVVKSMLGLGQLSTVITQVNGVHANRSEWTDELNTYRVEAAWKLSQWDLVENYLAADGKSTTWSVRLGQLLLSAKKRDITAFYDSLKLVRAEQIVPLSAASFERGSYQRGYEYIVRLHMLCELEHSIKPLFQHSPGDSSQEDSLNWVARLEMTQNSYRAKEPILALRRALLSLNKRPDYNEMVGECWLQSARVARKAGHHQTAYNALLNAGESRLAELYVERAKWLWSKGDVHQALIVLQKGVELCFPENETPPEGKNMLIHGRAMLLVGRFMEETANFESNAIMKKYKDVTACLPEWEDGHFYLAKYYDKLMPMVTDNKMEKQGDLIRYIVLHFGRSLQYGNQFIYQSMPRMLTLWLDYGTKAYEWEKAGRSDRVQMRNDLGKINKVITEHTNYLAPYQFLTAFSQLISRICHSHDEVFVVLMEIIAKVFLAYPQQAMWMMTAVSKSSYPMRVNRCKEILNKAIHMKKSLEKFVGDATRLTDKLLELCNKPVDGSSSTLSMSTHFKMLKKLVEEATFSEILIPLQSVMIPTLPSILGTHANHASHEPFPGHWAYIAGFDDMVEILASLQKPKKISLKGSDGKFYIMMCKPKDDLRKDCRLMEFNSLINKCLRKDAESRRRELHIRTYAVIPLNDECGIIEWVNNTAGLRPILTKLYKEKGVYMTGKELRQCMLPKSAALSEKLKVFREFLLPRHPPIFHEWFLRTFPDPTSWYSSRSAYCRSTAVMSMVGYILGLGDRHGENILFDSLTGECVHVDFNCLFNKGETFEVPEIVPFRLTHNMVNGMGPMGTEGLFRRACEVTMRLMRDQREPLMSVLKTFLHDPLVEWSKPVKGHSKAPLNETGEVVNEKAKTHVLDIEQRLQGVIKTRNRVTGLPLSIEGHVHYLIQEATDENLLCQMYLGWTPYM
# Sequence (Q8WXE1 whole entry partner): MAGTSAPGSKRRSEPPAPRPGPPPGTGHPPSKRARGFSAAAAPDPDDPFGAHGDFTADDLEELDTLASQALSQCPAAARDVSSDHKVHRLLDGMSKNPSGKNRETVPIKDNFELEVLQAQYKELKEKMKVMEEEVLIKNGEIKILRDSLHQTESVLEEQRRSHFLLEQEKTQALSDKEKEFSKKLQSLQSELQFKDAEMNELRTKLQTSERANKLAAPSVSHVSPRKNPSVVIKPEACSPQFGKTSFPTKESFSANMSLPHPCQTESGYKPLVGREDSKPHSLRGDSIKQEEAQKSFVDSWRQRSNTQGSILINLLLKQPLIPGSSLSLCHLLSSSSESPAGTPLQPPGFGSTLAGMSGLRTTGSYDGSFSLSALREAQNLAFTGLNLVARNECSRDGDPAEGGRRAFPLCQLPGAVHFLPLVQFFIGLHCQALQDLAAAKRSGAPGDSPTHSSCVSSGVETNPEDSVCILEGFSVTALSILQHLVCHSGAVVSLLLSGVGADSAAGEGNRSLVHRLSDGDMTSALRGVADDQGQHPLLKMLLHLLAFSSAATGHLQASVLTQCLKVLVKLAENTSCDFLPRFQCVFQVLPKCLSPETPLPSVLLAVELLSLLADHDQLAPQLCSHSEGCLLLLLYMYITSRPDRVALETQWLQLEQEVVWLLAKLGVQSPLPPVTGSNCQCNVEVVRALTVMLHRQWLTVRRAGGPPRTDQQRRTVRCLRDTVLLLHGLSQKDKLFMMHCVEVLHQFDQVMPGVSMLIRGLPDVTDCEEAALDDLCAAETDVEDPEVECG
# Test Protocol: Cellular ATR inhibition assay, H2AX phosphorylation in hydroxyurea treated HT29 cells
# Format: cell-based
# Experimental Conditions: 2 mM hydroxyurea, phosphorylated H2AX Ser139 positive nuclei
Parameter: pIC50
Numbers only, as −log10 of the molar value.

{"Compound": "CC(C)S(=O)(=O)c1ccc(-c2cnc(N)c(-c3cc(-c4ccc(NCC5CCN5)cc4)no3)n2)cc1 (stereo not shown) [Compound I-2]", "Parameter": "pIC50", "Observed Measurement": 7.40}

Batch of 2 compounds: report pIC50 for each.
1. CC(C)S(=O)(=O)c1ccc(-c2cnc(N)c(-c3cc(-c4ccc(NC[C@@H]5CCCN5)cc4)no3)n2)cc1 [Compound I-3]
2. CC(C)S(=O)(=O)c1ccc(-c2cnc(N)c(-c3cc(-c4ccc(NCCN(C)C)cc4)no3)n2)cc1 [Compound I-6]

a:
7.85
6.59
